Test system: mRNA
Experiment: mRNA encapsulation (modified Quant-iT RiboGreen assay)
Type: physicochemical
Settings: RiboGreen, without vs with Triton X-100
Non-standard residues stand in square brackets, D forms with d. Residues, ends and D or L forms follow the SMILES beside them. *: point of attachment. Gly(N-(3-decanoyloxypropyl)) = CCCCCCCCCC(=O)OCCCNCC(=O)O; Gly(N-3-morpholinopropyl) = O=C(O)CNCCCN1CCOCC1; N(2-ethylhexyl)Gly = CCCCC(CC)CNCC(=O)O; For = O=C*
measured metric: mean percent encapsulation of RNA
Please format your answer as a value with the unit trailing.

Memo: CCCCCCCCCC(=O)OCCCN(CC(=O)N(CC(=O)N(CC(=O)N(CCCOC(=O)CCCCCCCCC)CC(=O)N(CC(N)=O)CC(CC)CCCC)CC(CC)CCCC)CC(CC)CCCC)C(=O)CN(CC(CC)CCCC)C(=O)CN(C=O)CCCN1CCOCC1 (stereo not shown) [Compound 106] (For-[Gly(N-3-morpholinopropyl)][N(2-ethylhexyl)Gly][Gly(N-(3-decanoyloxypropyl))][N(2-ethylhexyl)Gly][N(2-ethylhexyl)Gly][Gly(N-(3-decanoyloxypropyl))][N(2-ethylhexyl)Gly]-NH2) , reported mean percent encapsulation of RNA: 80.0%

====

Recorded % of injected dose remaining in liver, one value per entry.
Test: Peptoid quantity remaining in liver by HPLC-TOF mass spectrometry; further: time not given here
Type: in vivo
Conditions: liver homogenate
Non-standard residues stand in square brackets, D forms with d. Residues, ends and D or L forms follow the SMILES beside them. *: point of attachment. Gly(N-(3-decanoyloxypropyl)) = CCCCCCCCCC(=O)OCCCNCC(=O)O; N(3-lauroyloxypropyl)Gly = CCCCCCCCCCCC(=O)OCCCNCC(=O)O; N(3-imidazol-1-ylpropyl)Gly = O=C(O)CNCCCn1ccnc1; Gly(N-3-morpholinopropyl) = O=C(O)CNCCCN1CCOCC1; N(2-ethylhexyl)Gly = CCCCC(CC)CNCC(=O)O; NHexGly = CCCCCCNCC(=O)O; For = O=C*
The response must be a number in % with no trailing unit.

Recorded % of injected dose remaining in liver, per entry:
CCCCCCCCCCCC(=O)OCCCN(CC(=O)N(CC(=O)N(CCCN1CCOCC1)CC(=O)N(CC(=O)N(CCCOC(=O)CCCCCCCCCCC)CC(=O)N(CC(N)=O)CC(CC)CCCC)CC(CC)CCCC)CC(CC)CCCC)C(=O)CN(C=O)CC(CC)CCCC (centres unmarked) [Compound 80] (For-[N(2-ethylhexyl)Gly][N(3-lauroyloxypropyl)Gly][N(2-ethylhexyl)Gly][Gly(N-3-morpholinopropyl)][N(2-ethylhexyl)Gly][N(3-lauroyloxypropyl)Gly][N(2-ethylhexyl)Gly]-NH2); 13.58
CCCCCCCCCC(=O)OCCCN(CC(=O)N(CCCOC(=O)CCCCCCCCC)CC(=O)N(CCCCCC)CC(=O)N(CCCOC(=O)CCCCCCCCC)CC(=O)N(CCCOC(=O)CCCCCCCCC)CC(=O)N(CCCCCC)CC(N)=O)C(=O)CNCCCn1ccnc1 [Compound 109] (H-[N(3-imidazol-1-ylpropyl)Gly][Gly(N-(3-decanoyloxypropyl))][Gly(N-(3-decanoyloxypropyl))][NHexGly][Gly(N-(3-decanoyloxypropyl))][Gly(N-(3-decanoyloxypropyl))][NHexGly]-NH2); 48.80
CCCCCCCCCC(=O)OCCCN(CC(=O)N(CCCOC(=O)CCCCCCCCC)CC(=O)N(CCCCCC)CC(=O)N(CCCOC(=O)CCCCCCCCC)CC(=O)N(CCCOC(=O)CCCCCCCCC)CC(=O)N(CCCCCC)CC(N)=O)C(=O)CN(C=O)CCCN1CCOCC1 [Compound 108] (For-[Gly(N-3-morpholinopropyl)][Gly(N-(3-decanoyloxypropyl))][Gly(N-(3-decanoyloxypropyl))][NHexGly][Gly(N-(3-decanoyloxypropyl))][Gly(N-(3-decanoyloxypropyl))][NHexGly]-NH2); 7.35

Memo: CCCCCCCCCCCC(=O)OCCCN(C=O)CC(=O)N(CCCOC(=O)CCCCCCCCCCC)CC(=O)N(CC(=O)N(CCCN1CCOCC1)CC(=O)N(CCCOC(=O)CCCCCCCCCCC)CC(=O)N(CCCOC(=O)CCCCCCCCCCC)CC(=O)N(CC(N)=O)CC(CC)CCCC)CC(CC)CCCC (centres unmarked) [Compound 81] (For-[N(3-lauroyloxypropyl)Gly][N(3-lauroyloxypropyl)Gly][N(2-ethylhexyl)Gly][Gly(N-3-morpholinopropyl)][N(3-lauroyloxypropyl)Gly][N(3-lauroyloxypropyl)Gly][N(2-ethylhexyl)Gly]-NH2) , reported % of injected dose remaining in liver: 6.17
